- experimentSummary: logP by HPLC on reversed-phase column (C 18), EEC Directive 79/B31 Annex V.A8, methods A and B
- Type: physicochemical
- conditionLabel: reversed-phase HPLC column (C 18), HPLC reversed-phase C 18, method B: 40° C., 0.1% aqueous formic acid and acetonitrile, linear gradient 10% to 90% acetonitrile
metric: chromatographic logP

# compound, reading
measured = [
    ("Cc1cc(C(=O)N(C2CC2)S(=O)(=O)c2ccc(Oc3ccc(Br)cc3)cc2)c(C)o1 [Compound 7]", 4.9),
    ("Cc1cc(C(=O)N(C2CC2)S(=O)(=O)c2ccc(Oc3ccccc3)cc2)nn1C [Compound 76]", 3.4),
    ("COc1nn(C)c(O)c1C(=O)N(C1CC1)S(=O)(=O)c1ccc(Oc2ccc(Br)cc2)cc1 [Compound 284]", 4.3),
    ("CCc1nn(C)c(F)c1C(=O)N(C1CC1)S(=O)(=O)c1ccc(C(F)(F)F)cc1Br [Compound 375]", 3.6),
    ("CCCOc1nn(C)cc1C(=O)N(C1CC1)S(=O)(=O)c1ccc(Oc2ccc(O)cc2)cc1Br [Compound 295]", 4.5),
    ("CCc1nn(C)c(F)c1C(=O)N(C1CC1)S(=O)(=O)c1cc(O)cc(O)c1 [Compound 376]", 3.9),
    ("COc1nn(C)c(O)c1C(=O)N(C1CC1)S(=O)(=O)c1ccc(Oc2ccccc2)cc1 [Compound 280]", 3.8),
    ("Cn1nc(C(F)(F)F)c(C(=O)N(C2CC2)S(=O)(=O)c2cccc(Cl)c2F)c1F [Compound 358]", 3.2),
    ("Cc1nn(C)c(N(C)C)c1C(=O)N(C1CC1)S(=O)(=O)c1ccc(O)c(O)c1O [Compound 229]", 3.6),
    ("CCCOc1nn(C)cc1C(=O)N(C1CC1)S(=O)(=O)c1ccc(Oc2ccc(-n3cncn3)cc2)cc1Br [Compound 286]", 3),
    ("Cn1nc(C(F)F)c(C(=O)N(C2CC2)S(=O)(=O)c2ccc(O)cc2O)c1F [Compound 105]", 3.4),
    ("CCc1nn(C)c(F)c1C(=O)N(C1CC1)S(=O)(=O)c1ccc(Oc2ccc(Br)cc2)cc1 [Compound 390]", 4.4),
    ("Cn1nc(C(F)(F)F)c(C(=O)N(C2CC2)S(=O)(=O)c2ccc(F)cc2Br)c1F [Compound 368]", 3.2),
    ("CCc1nn(C)c(F)c1C(=O)N(C1CC1)S(=O)(=O)c1ccc(Oc2cccc(C(F)(F)F)c2)cc1 [Compound 388]", 4.2),
    ("CC(C)c1nn(C)c(F)c1C(=O)N(C1CC1)S(=O)(=O)c1ccc(C(F)(F)F)cc1O [Compound 97]", 4),
    ("CCCOc1nn(C)cc1C(=O)N(C1CC1)S(=O)(=O)c1ccc(Oc2ccc3ccc(=O)oc3c2)cc1Br [Compound 287]", 3.4),
]

* * *

- experimentSummary: logP by HPLC on reversed-phase column (C 18), EEC Directive 79/B31 Annex V.A8, methods A and B
- Assay type: physicochemical
- conditionLabel: reversed-phase HPLC column (C 18), HPLC reversed-phase C 18, method A: 43° C., 0.1% aqueous phosphoric acid, acetonitrile, linear gradient 10% to 90% acetonitrile
- Description: Calibration was carried out using unbranched alkan-2-ones (having 3 to 16 carbon atoms) with known logP values (determination of the logP values by the retention times using linear interpolation between two successive alkanones).

# compound, chromatographic logP
rows = [
    ("Cc1nn(C)c(F)c1C(=O)N(C1CC1)S(=O)(=O)c1ccccc1OC(F)(F)F [Compound 203]", 2.75),
    ("Cn1cc(C(=O)N(C2CC2)S(=O)(=O)c2ccccc2O)c(C(F)(F)F)n1 [Compound 200]", 2.71),
    ("O=C(c1cc(Br)c(Br)o1)N(C1CC1)S(=O)(=O)c1ccccc1O [Compound 1]", 3.58),
    ("Cc1nc(C(=O)N(C2CC2)S(=O)(=O)c2ccc(C(C)(C)C)cc2)cs1 [Compound 72]", 3.59),
]
